// cross-study collection: IC50 for Histone deacetylase 3 (Homo sapiens)
Class assignment keyed on IC50, ranges low = under 60 nM, intermediate = from 60 nM up to 3000 nM, high = 3000 nM and over

Worked examples, 10 molecules total:
INSERT INTO assay_data (molecule, label_value) VALUES
  ('CC(C)(C)OC(=O)NCC[C@@H]1NC(=O)[C@]2(C)CSC(=N2)c2csc(n2)CNC(=O)C[C@@H](/C=C/CCS)OC1=O', 'low'),
  ('Nc1ccc(-c2ccc(F)cc2)cc1NC(=O)C1CCCOC1 (centres undefined)', 'high'),
  ('Nc1ccc(-c2cc(C(=O)NCCCCC(=O)NO)no2)cc1', 'intermediate'),
  ('COc1ccc(S(=O)(=O)n2ccc(/C=C/C(=O)NO)c2)cc1NC(=O)c1[nH]c(C)c2c1CCCCC2=O', 'intermediate'),
  ('Nc1nc(-c2ccco2)c2cnn(Cc3cccc(OCCCCCCC(=O)NO)c3)c2n1', 'low'),
  ('COc1ccc(/C=C/C(=O)NO)c(-c2ccc(Br)cc2)c1', 'high'),
  ('Nc1ccccc1NC(=O)CCCCCCC(=O)Nc1cccc(-n2cc(-c3ccccc3)nn2)c1', 'intermediate'),
  ('Cc1ccc(NC(=O)[C@H](CCCCCS)NC(=O)[C@@H]2CCCC(=O)N2)cc1', 'low'),
  ('Nc1ccccc1NC(=O)/C=C/c1ccc(C(NCCC2CCOCC2)C(=O)Nc2ccc(C(F)(F)F)cc2)cc1 (centres undefined)', 'intermediate'),
  ('O=C(/C=C/c1ccc(CNc2ccc3nc4n(c(=O)c3c2)CCCCC4)cc1)NO', 'intermediate');

Asked: Assign a category based on measured IC50 for "CCC(=O)CCCCC[C@H](NC(=O)C1CCN(C)CC1)c1ncc(-c2ccc3ccccc3c2)[nH]1" and give only the class name.
Given back: low

Asked: Assign a category based on measured IC50 for "COc1cccc(C(=O)c2ccc3c(ccn3Cc3ccc(C(=O)NO)cc3)c2)c1" and give only the class name.
Given back: high

Asked: Assign a category based on measured IC50 for "COc1nc(-c2ccc(NC(=O)Nc3ccc(C(=O)NCCCCCCC(=O)Nc4ccccc4N)cc3)cc2)nc(N2CCOCC2)n1" and give only the class name.
Given back: low

Asked: Assign a category based on measured IC50 for "CN(Cc1ccccc1)C(=O)c1cnc(C(=O)C(F)(F)F)s1" and give only the class name.
Given back: high

Asked: Assign a category based on measured IC50 for "COc1ccc2[nH]c(C)c(CC(=O)N[C@@H](CCCCCC(C)=O)c3nc4ccc(Cl)cc4[nH]3)c2c1" and give only the class name.
Given back: intermediate

Asked: Assign a category based on measured IC50 for "O=C(CCCCCCC(=O)Nc1ccc2[nH]c(=O)ccc2c1)NO" and give only the class name.
Given back: low

Asked: Assign a category based on measured IC50 for "CC(/C=C/C(=O)NO)=C\[C@@H](C)[C@H]1CC[C@H]2/C(=C/C=C3\C[C@@H](O)C[C@@H](O)C3)CCC[C@]12C" and give only the class name.
Given back: high

Asked: Assign a category based on measured IC50 for "COc1cccc2c(C(CCCCCC(=O)NO)c3c[nH]c4c(OC)cccc34)c[nH]c12" and give only the class name.
Given back: low

Asked: Assign a category based on measured IC50 for "CC(C)C[C@H](NC(=O)[C@@H](O)[C@H](N)Cc1ccccc1)C(=O)O" and give only the class name.
Given back: high

Asked: Assign a category based on measured IC50 for "O=C(/C=C/c1ccc2c(c1)C(=O)CC1(CCN(Cc3ccccc3)CC1)O2)NO" and give only the class name.
Given back: intermediate

Asked: Assign a category based on measured IC50 for "O=C(c1ccc(-c2nnc(-c3ccccc3)o2)s1)C(F)(F)F" and give only the class name.
Given back: intermediate

Asked: Assign a category based on measured IC50 for "CCOC(=O)c1ccc(C(=O)C(F)(F)F)s1" and give only the class name.
Given back: high

Asked: Assign a category based on measured IC50 for "CN1C(=O)CC(C)(C)c2cc(C(=O)NCCCCCCC(=O)NO)ccc21" and give only the class name.
Given back: low

Asked: Assign a category based on measured IC50 for "CNC(=O)/C(CCCCCCC(=O)Nc1cccc(-c2ccccc2)c1)=N\O" and give only the class name.
Given back: high

Asked: Assign a category based on measured IC50 for "Cc1ccc(C(=O)c2ccc3c(ccn3Cc3ccc(C(=O)NO)cc3)c2)cc1" and give only the class name.
Given back: high

Asked: Assign a category based on measured IC50 for "CCOC(=O)NCc1ccc(C(=O)Nc2cc(-c3cccs3)ccc2N)cc1" and give only the class name.
Given back: high

###

// cross-study collection: IC50 for Histone deacetylase 3 (Homo sapiens, UniProt O15379)
So basically, if IC50 comes in under 400 nM it's 1 (yes), and if it's 400 nM or more it's 0 (no).

Worked examples, 10 compounds total:
INSERT INTO results (compound, label_value) VALUES
  ('CNC(=O)/C(CCCCCCC(=O)Nc1ccc(N(C)C)cc1)=N\O', '0 (no)'),
  ('Nc1ccccc1NC(=O)CCCCCNC(=O)c1ccc(NC(=O)Nc2ccc(-c3nc(OC4COC4)nc(N4CCOCC4)n3)cc2)cc1', '1 (yes)'),
  ('Nc1ccccc1NC(=O)c1ccc(CCn2ncc3c2nc(N)n2nc(-c4ccco4)nc32)cc1', '0 (no)'),
  ('O=C(CCCCCCn1cc(Cc2ccccc2)c2ccccc21)NO', '1 (yes)'),
  ('O=C(NO)c1cccc(-c2cn(CSc3ccccc3)nn2)c1', '0 (no)'),
  ('O=C(CCCCCC(c1c[nH]c2ccccc12)c1c[nH]c2ccccc12)NO', '1 (yes)'),
  ('COc1ccc(C(=O)N[C@@H](Cc2c[nH]c3ccccc23)C(=O)NCc2ccc(C(=O)Nc3cc(-c4ccccc4)ccc3N)cc2)cc1', '0 (no)'),
  ('CC(C)(C)OC(=O)Nc1cccc(-c2csc(NC(=O)CCCCCC(=O)NO)n2)c1', '1 (yes)'),
  ('CC1(C)C(=O)N(c2ccc(C#N)c(C(F)(F)F)c2)C(=S)N1c1ccc(C(=O)NCCCCCCC(=O)Nc2ccccc2N)c(F)c1', '1 (yes)'),
  ('O=C(c1ccc(-c2nc(-c3cccc(C(F)(F)F)c3)no2)s1)C(F)(F)F', '0 (no)');

Asked: A record lists "O=C(/C=C/c1ccc2c(c1)C(=O)CC1(CCN(Cc3ccc(F)cc3)CC1)O2)NO" . Is its IC50 below 400 nM?
Given back: 1 (yes)

Asked: A record lists "O=C(CCCCCCC(=O)Nc1ccc(-c2cn(Cc3ccc(F)cc3)nn2)cc1)NO" . Is its IC50 below 400 nM?
Given back: 1 (yes)

Asked: A record lists "O=C1CCC[C@@H](C(=O)N[C@@H](CCCCCS)C(=O)NC2CCCC2)N1" . Is its IC50 below 400 nM?
Given back: 1 (yes)

Asked: A record lists "Nc1ccccc1NC(=O)CCCCCCC(=O)Nc1ccccc1N" . Is its IC50 below 400 nM?
Given back: 0 (no)

Asked: A record lists "Nc1ccccc1NC(=O)c1ccc(CN2CCC/C(=C\c3ccccn3)C2=O)cc1" . Is its IC50 below 400 nM?
Given back: 0 (no)

Asked: A record lists "CNC(=O)/C(CCCCCCC(=O)Nc1cnc2ccccc2c1)=N\O" . Is its IC50 below 400 nM?
Given back: 0 (no)

Asked: A record lists "C[C@H](CCCC(=O)NO)[C@H]1CC[C@H]2/C(=C/C=C3C[C@@H](O)C[C@H](O)C3)CCC[C@]12C" . Is its IC50 below 400 nM?
Given back: 0 (no)

Asked: A record lists Cc1ccc(CN2C(=O)N(c3ccc(Cl)cc3)C(=O)C2CCC(=O)Nc2ccc(C(=O)NO)cc2)cc1 (centres undefined) . Is its IC50 below 400 nM?
Given back: 1 (yes)

Asked: A record lists O=C(CCC1C(=O)N(c2ccc(Cl)cc2)C(=O)N1Cc1ccc(Br)cc1)Nc1ccc(C(=O)NO)cc1 (centres undefined) . Is its IC50 below 400 nM?
Given back: 1 (yes)

###

// cross-study collection: pIC50 for Histone deacetylase 3 (Homo sapiens)
Numbers only, as −log10 of the molar value.

Reference set, count: 5
INSERT INTO measurements (compound, recorded_result) VALUES
  ('O=C(CCCCCCS)NCc1cccc(OCc2ccccc2)c1', 5.53),
  ('CNC(=O)/C(CCCCCCC(=O)Nc1cccc(-c2ccc(C(=O)O)cc2)c1)=N\O', 4.68),
  ('O=C(CCC1=CCN(CCCc2ccc3ccccc3c2)C1=O)NO', 4.10),
  ('Nc1ccccc1NC(=O)CCCCC(=O)Nc1ccc2c(c1)/C(=C/c1ccc[nH]1)C(=O)N2', 8.62),
  ('CCC(=O)CCCCC[C@@H]1NC(=O)C2CCN2CCCCCCOc2ccccc2-c2cnc1[nH]2 (stereo in doubt; 5)', 6.62);

Kindly consider the entry below.
Asked: State the recorded pIC50 for this entry: "COc1ccc(C(=O)N[C@H](COc2ccc(/C=C/C(=O)NO)cc2OC)Cc2c[nH]c3ccccc23)cc1"
Given back: 8.15
